Where do the numbers come from? From patent US4389412A.

Item-by-item account of LC50 at 48 h
Assay: Fish toxicity test with guppies
Assay type: in vivo, Lebistes reticulatus
Conditions: guppy, water, guppies, 20° C., read-out: TLm (48 hrs.)

## Task Please give the documented LC50 at 48 h of CC1(C)C(C=C(Br)Br)C1C(=O)OC(C#N)c1cccc(Oc2ccccc2)c1 (centres unmarked) [Compound (D), Decamethrin]
## Result < 0.5 µg/mL

## Task Using the record for CC1(C)C(C=C(Cl)Cl)C1C(=O)OCc1cccc(Oc2ccccc2)c1 (centres unmarked) [Compound (B), Permethrin] , state its measured LC50 at 48 h.
## Result < 0.5 µg/mL

## Task Indicate its recorded LC50 at 48 h; the molecule in question is CC1(C)C(C=C(Cl)Cl)C1C(=O)OC(C#N)c1cccc(Oc2ccccc2)c1 (centres unmarked) [Compound (C), Cypermethrin]
## Result < 0.5 µg/mL

## Task Report LC50 at 48 h for CC1(C)C(C=C(Cl)Cl)C1C(=O)OC(C#N)c1cccc(Oc2ccc(Cl)cc2)c1 (stereo not drawn) [Compound (G) cis-/trans- = 50:50]
## Result < 1 µg/mL

## Task Give the measured LC50 at 48 h for C#CC(OC(=O)C1C(C=C(Cl)Cl)C1(C)C)c1cccc(Oc2ccccc2)c1 (centres unmarked) [Compound (F)]
## Result < 0.5 µg/mL

## Task Give a short answer stating reported LC50 at 48 h for C#CC(OC(=O)C1C(C=C(Cl)Cl)C1(C)C)c1cccc(Oc2ccc(Cl)cc2)c1 (stereo not drawn) [Compound (2) cis-/trans- = 50:50] .
## Result > 10 µg/mL

## Task Retrieve LC50 at 48 h measured for CC(C)C(C(=O)OC(C#N)c1cccc(Oc2ccccc2)c1)c1ccc(Cl)cc1 (centres unmarked) [Compound (E), Fenvalerate] and print it.
## Result < 0.5 µg/mL

## Task Give LC50 at 48 h for CC1(C)C(C=C(Cl)Cl)C1C(=O)OCc1cccc(Oc2ccc(Cl)cc2)c1 (stereo not drawn) [Compound (1) cis-/trans- = 50:50]
## Result > 5 µg/mL
